Target: human M2 receptor (Homo sapiens, UniProt P08172)
Sequence (P08172 1-466): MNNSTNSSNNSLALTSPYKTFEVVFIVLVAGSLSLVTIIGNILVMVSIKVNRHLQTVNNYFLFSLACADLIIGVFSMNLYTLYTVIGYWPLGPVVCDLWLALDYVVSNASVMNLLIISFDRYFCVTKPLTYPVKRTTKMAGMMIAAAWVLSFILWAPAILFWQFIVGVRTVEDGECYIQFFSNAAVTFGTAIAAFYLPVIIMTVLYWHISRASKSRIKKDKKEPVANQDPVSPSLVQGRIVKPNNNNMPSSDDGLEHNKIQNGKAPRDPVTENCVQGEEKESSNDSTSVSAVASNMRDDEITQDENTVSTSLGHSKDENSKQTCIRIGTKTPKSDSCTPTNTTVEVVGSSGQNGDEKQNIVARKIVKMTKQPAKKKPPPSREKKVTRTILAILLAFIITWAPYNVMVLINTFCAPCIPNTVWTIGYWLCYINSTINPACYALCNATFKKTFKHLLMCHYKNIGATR
Assay: Functional M2-GIRK1/4 activation test: allosteric potency (EC50) and efficiency
Conditions: read-out: Efficiency, boosting of the acetylcholine effect at EC20 acetylcholine concentration; CHO-DUKX-M2-GIRK cells
Recorded Emax, one value per entry.
QUANTITY KIND: Emax (%)

>  <COMPOUND>
CC[C@H](NC(=O)c1cn(-c2ncc(F)cc2F)c2nc(N3CC(O)C(C)C3=O)ccc2c1=O)C(F)(F)F (single isomer, unassigned) [Example 109]

>  <QUANTITATIVE READOUT>
96

$$$$
>  <COMPOUND>
O=C(N[C@@H](C1CC1)C(F)(F)F)c1cn(-c2ncc(F)cc2F)c2nc(N3C[C@@H](O)[C@@H](O)C3)ccc2c1=O [Example 62]

>  <QUANTITATIVE READOUT>
100

$$$$
>  <COMPOUND>
CC(NC(=O)c1cn(-c2ncc(F)cc2F)c2nc(N3CCNC3=O)ccc2c1=O)C(F)(F)C(F)(F)F (single isomer, unassigned) [Example 162]

>  <QUANTITATIVE READOUT>
96

$$$$
>  <COMPOUND>
CC1(NC(=O)c2cn(-c3ncc(F)cc3F)c3nc(N4CCNC4=O)ccc3c2=O)CC(F)(F)C1 [Example 171]

>  <QUANTITATIVE READOUT>
90.5

$$$$
>  <COMPOUND>
CC(C)(NC(=O)c1cn(-c2ncc(F)cc2F)c2nc(N3CC(CO)(CO)C3)ccc2c1=O)C(F)(F)C(F)(F)F [Example 184]

>  <QUANTITATIVE READOUT>
100

$$$$
>  <COMPOUND>
CC[C@@H](NC(=O)c1cn(-c2ncccc2F)c2nc(N3C[C@@H](O)CC3=O)ccc2c1=O)C(F)(F)F [Example 140]

>  <QUANTITATIVE READOUT>
92

$$$$
>  <COMPOUND>
O=C(N[C@H](C1CC1)C(F)(F)F)c1cn(-c2ncc(F)cc2Cl)c2nc(N3C[C@@H](O)[C@H](O)C3)ccc2c1=O [Example 51]

>  <QUANTITATIVE READOUT>
84.3

$$$$
>  <COMPOUND>
CC[C@@H](NC(=O)c1cn(-c2ncc(F)cc2Cl)c2nc(N3CC4CC4(O)C3)ccc2c1=O)C(F)(F)F (mixture of isomers) [Example 48]

>  <QUANTITATIVE READOUT>
92.5

$$$$
>  <COMPOUND>
CC1C(=O)N(c2ccc3c(=O)c(C(=O)N[C@@H](C4CC4)C(F)(F)F)cn(-c4ncc(F)cc4F)c3n2)CC1O (mixture of isomers) [Example 104]

>  <QUANTITATIVE READOUT>
98.5

$$$$
>  <COMPOUND>
CC(C)(C)[C@H](NC(=O)c1cn(-c2ncc(F)cc2F)c2nc(N3CCNC3=O)ccc2c1=O)C(F)(F)F [Example 100]

>  <QUANTITATIVE READOUT>
100

$$$$
>  <COMPOUND>
O=C(NC1(C(F)(F)F)CCCC1)c1cn(-c2ncc(F)cc2F)c2nc(N3C[C@@H](O)[C@H](O)C3)ccc2c1=O [Example 87]

>  <QUANTITATIVE READOUT>
100

$$$$
>  <COMPOUND>
CCC(NC(=O)c1cn(-c2ncc(F)cc2F)c2nc(N3C[C@@H](O)[C@H](O)C3)ccc2c1=O)C(F)(F)C(F)(F)F (single isomer, unassigned) [Example 96]

>  <QUANTITATIVE READOUT>
100

$$$$
>  <COMPOUND>
CC[C@@H](NC(=O)c1cn(-c2ncc(F)cc2F)c2nc(N3CCCC(F)(F)C3)ccc2c1=O)C(F)(F)F [Example 72]

>  <QUANTITATIVE READOUT>
90

$$$$
>  <COMPOUND>
CC(C)(NC(=O)c1cn(-c2ncc(F)cc2F)c2nc(N3CCC[C@@H]3CO)ccc2c1=O)C(F)(F)C(F)(F)F [Example 188]

>  <QUANTITATIVE READOUT>
100

$$$$
>  <COMPOUND>
CC1C(=O)N(c2ccc3c(=O)c(C(=O)N[C@@H](C4CC4)C(F)(F)F)cn(-c4ncc(F)cc4F)c3n2)CC1O (single isomer, unassigned) [Example 105]

>  <QUANTITATIVE READOUT>
100

$$$$
>  <COMPOUND>
O=C(NC(CC(F)(F)F)C(F)(F)F)c1cn(-c2ncc(F)cc2F)c2nc(N3C[C@@H](O)CC3=O)ccc2c1=O (some centres unmarked) [Example 159]

>  <QUANTITATIVE READOUT>
100

$$$$
>  <COMPOUND>
O=C(NC(C1CC1)C(F)(F)F)c1cn(-c2ncc(F)cc2F)c2nc(N3CC4CC4(O)C3)ccc2c1=O (centres unmarked) [Example 36]

>  <QUANTITATIVE READOUT>
100

$$$$
>  <COMPOUND>
O=C(Nc1c(Cl)cccc1Cl)c1cn(-c2ncc(F)cc2F)c2nc(N3C[C@@H](O)[C@H](O)C3)ccc2c1=O [Example 67]

>  <QUANTITATIVE READOUT>
97

$$$$
>  <COMPOUND>
CC1(O)CCN(c2ccc3c(=O)c(C(=O)Nc4c(Cl)cccc4Cl)cn(-c4ncc(F)cc4F)c3n2)C1 (racemic) [Example 69]

>  <QUANTITATIVE READOUT>
92

$$$$
>  <COMPOUND>
O=C(NC(c1ccccc1Cl)C(F)(F)F)c1cn(-c2ncc(F)cc2F)c2nc(N3C[C@@H](O)[C@H](O)C3)ccc2c1=O (mixture of isomers) [Example 83]

>  <QUANTITATIVE READOUT>
100

$$$$
>  <COMPOUND>
O=C(N[C@H](C1CC1)C(F)(F)F)c1cn(-c2ncc(F)cc2F)c2nc(N3CCCN(CCO)C3=O)ccc2c1=O [Example 122]

>  <QUANTITATIVE READOUT>
92

$$$$
>  <COMPOUND>
CC[C@@H](NC(=O)c1cn(-c2ncc(F)cc2F)c2nc(N3C[C@@H](O)[C@H](O)C3)ccc2c1=O)C(F)(F)F [Example 42]

>  <QUANTITATIVE READOUT>
100

$$$$
>  <COMPOUND>
CC1C(O)C2(CC2)C(=O)N1c1ccc2c(=O)c(C(=O)N[C@@H](C)C(F)(F)F)cn(-c3ncc(F)cc3F)c2n1 (some centres unmarked) [Example 116]

>  <QUANTITATIVE READOUT>
96

$$$$
>  <COMPOUND>
CCC(COC(F)(F)F)NC(=O)c1cn(-c2ncc(F)cc2F)c2nc(N3C[C@@H](O)CC3=O)ccc2c1=O (single isomer, unassigned) [Example 18]

>  <QUANTITATIVE READOUT>
87

$$$$
>  <COMPOUND>
O=C(N[C@@H](C1CC1)C(F)(F)F)c1cn(-c2ncc(F)cc2F)c2nc(N3CCCN(CCO)C3=O)ccc2c1=O [Example 123]

>  <QUANTITATIVE READOUT>
98

$$$$
>  <COMPOUND>
O=C(NC(c1cccc(Cl)c1)C(F)(F)F)c1cn(-c2ncc(F)cc2F)c2nc(N3C[C@@H](O)CC3=O)ccc2c1=O (some centres unmarked) [Example 7]

>  <QUANTITATIVE READOUT>
100

$$$$

---

Target: human M2 receptor (Homo sapiens)
Sequence (P08172 1-466): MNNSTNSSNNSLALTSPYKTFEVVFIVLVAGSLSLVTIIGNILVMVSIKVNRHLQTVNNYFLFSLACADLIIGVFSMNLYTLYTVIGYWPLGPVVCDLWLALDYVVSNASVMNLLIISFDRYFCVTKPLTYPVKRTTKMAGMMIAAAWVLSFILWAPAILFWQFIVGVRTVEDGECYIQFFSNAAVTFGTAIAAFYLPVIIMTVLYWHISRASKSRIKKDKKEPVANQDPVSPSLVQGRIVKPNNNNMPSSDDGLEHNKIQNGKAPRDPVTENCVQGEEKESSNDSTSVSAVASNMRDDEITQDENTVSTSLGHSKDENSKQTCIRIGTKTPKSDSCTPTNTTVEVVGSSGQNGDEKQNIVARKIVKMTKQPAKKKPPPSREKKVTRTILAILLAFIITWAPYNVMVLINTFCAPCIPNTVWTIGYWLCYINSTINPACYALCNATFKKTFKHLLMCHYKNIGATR
Test: Functional M2-GIRK1/4 activation test: allosteric potency (EC50) and efficiency
Settings: Receptor activity EC50, CHO-DUKX-M2-GIRK cells; acetylcholine at EC20; in some cases mean of two or more determinations
pEC50: −log10 of the molar value.
QUANTITY KIND: pEC50

>  <COMPOUND>
CC[C@@H](NC(=O)c1cn(-c2ncc(F)cc2F)c2nc(N3C[C@@H](O)[C@@H](O)C3)ccc2c1=O)C(F)(F)F [Example 41]

>  <QUANTITY KIND>
pEC50

>  <QUANTITATIVE READOUT>
6.48

$$$$
>  <COMPOUND>
CC1CC(=O)N(c2ccc3c(=O)c(C(=O)N[C@H](C4CC4)C(F)(F)F)cn(-c4ncc(F)cc4F)c3n2)C1 (mixture of isomers) [Example 27]

>  <QUANTITY KIND>
pEC50

>  <QUANTITATIVE READOUT>
7.44

$$$$
>  <COMPOUND>
CC[C@H](NC(=O)c1cn(-c2ncc(F)cc2F)c2nc(N3C[C@@H](C)NC3=O)ccc2c1=O)C(F)(F)F [Example 143]

>  <QUANTITY KIND>
pEC50

>  <QUANTITATIVE READOUT>
7.05

$$$$
>  <COMPOUND>
O=C(N[C@H](C1CC1)C(F)(F)F)c1cn(-c2ncc(F)cc2F)c2nc(N3CCN(CCO)C3=O)ccc2c1=O [Example 121]

>  <QUANTITY KIND>
pEC50

>  <QUANTITATIVE READOUT>
6.49

$$$$
>  <COMPOUND>
CCC(NC(=O)c1cn(-c2ncc(F)cc2F)c2nc(N3C[C@@H](O)CC3=O)ccc2c1=O)C(F)(F)C(F)(F)F (mixture of isomers) [Example 92]

>  <QUANTITY KIND>
pEC50

>  <QUANTITATIVE READOUT>
7.77

$$$$
>  <COMPOUND>
CC[C@@H](NC(=O)c1cn(-c2ncc(F)cc2F)c2nc(N3CCCCC3=O)ccc2c1=O)C(F)(F)F [Example 34]

>  <QUANTITY KIND>
pEC50

>  <QUANTITATIVE READOUT>
6.06

$$$$
>  <COMPOUND>
O=C(N[C@H](C1CC1)C(F)(F)F)c1cn(-c2ncc(F)cc2Cl)c2nc(N3C[C@@H](O)CC3=O)ccc2c1=O [Example 21]

>  <QUANTITY KIND>
pEC50

>  <QUANTITATIVE READOUT>
6.71

$$$$
>  <COMPOUND>
CC[C@H](NC(=O)c1cn(-c2ncc(F)cc2F)c2nc(N3CC(O)(C(F)(F)F)C3)ccc2c1=O)C(F)(F)F [Example 131]

>  <QUANTITY KIND>
pEC50

>  <QUANTITATIVE READOUT>
6.97

$$$$
>  <COMPOUND>
O=C(N[C@H](C1CC1)C(F)(F)F)c1cn(-c2ncccc2F)c2nc(N3CC4CC4(O)C3)ccc2c1=O (mixture of isomers) [Example 135]

>  <QUANTITY KIND>
pEC50

>  <QUANTITATIVE READOUT>
7.01

$$$$
>  <COMPOUND>
O=C(NC(c1cccc(F)c1)C(F)(F)F)c1cn(-c2ncc(F)cc2F)c2nc(N3C[C@@H](O)CC3=O)ccc2c1=O (stereo partly shown) [Example 10]

>  <QUANTITY KIND>
pEC50

>  <QUANTITATIVE READOUT>
7.60

$$$$
>  <COMPOUND>
CC(NC(=O)c1cn(-c2ncc(F)cc2F)c2nc(N3CCCC[C@@H]3CO)ccc2c1=O)C(F)(F)C(F)(F)F (single isomer, unassigned) [Example 176]

>  <QUANTITY KIND>
pEC50

>  <QUANTITATIVE READOUT>
7.55

$$$$
>  <COMPOUND>
CCC(NC(=O)c1cn(-c2ncc(F)cc2F)c2nc(N3CCNC3=O)ccc2c1=O)C(F)(F)C(F)(F)F (racemic) [Example 164]

>  <QUANTITY KIND>
pEC50

>  <QUANTITATIVE READOUT>
7.85

$$$$
>  <COMPOUND>
CC[C@H](NC(=O)c1cn(-c2ncc(F)cc2F)c2nc(N3CC(C)CC3=O)ccc2c1=O)C(F)(F)F (stereo partly shown) [Example 30]

>  <QUANTITY KIND>
pEC50

>  <QUANTITATIVE READOUT>
7.19

$$$$
